Here the recorded fraction unbound is given for each entry.
assay: Fraction unbound in rat brain; assay type: ADME, tissue-based

{"columns": ["compound", "fraction unbound"],
 "data": [
  ["Cc1c(C(C)OC(=O)Nc2ccccc2)sc2nccn12 (stereo unspecified)", 0.003],
  ["Cc1c(C(C)OC(=O)Nc2cccc(F)c2)sc2ncnn12 (stereo unspecified)", 0.017],
  ["Cc1c(C(C)OC(=O)Nc2cccc(F)c2)sc2nncn12 (stereo unspecified)", 0.068],
  ["Cc1c(C(C)OC(=O)Nc2ccccc2)sc2nc(-c3cccs3)nn12 (stereo unspecified)", "< 0.001"],
  ["Cc1c(C(C)OC(=O)Nc2cccnc2)sc2ncnn12 (stereo unspecified)", 0.28],
  ["Cc1c(C(C)OC(=O)Nc2cccc(Cl)c2)sc2ncnn12 (stereo unspecified)", 0.009]
]}

Origin of values: ChEMBL document CHEMBL1629432
